Each recorded value in this set is attributed to patent US20200190209A1.

target: T1, human CD38 (full length, on cells) (human, UniProt P28907 1-300); experiment: flow cytometry, binding to Daudi cells
T1 construct: Endogenous on Daudi, Raji, Jurkat cells, human PBMC/T cells; full-length CD38 expressed in HEK-293T cells for alanine scanning; also called Uniprot P28907
Measure: EC50
Put your answer as a value accompanied by its unit after it.

What EC50 value was documented for this binder, aCD38-b-348-m4 (antibody, IgG1, V domains shown) VH: QLQLQESGPGLVKPSETLSLTCTVSGGSISSSDYYWGWIRQPPGKGLEWIGSIYYSGSTYYNPSLKSRVTISVDTSKNQFSLKLSSVTAADTAVYYCARGQYSSGWYAYPFDMWGQGTMVTVSS VL: EIVLTQSPGTLSLSPGERATLSCRASQSVRSSYLAWYQQKPGQAPRLLIYGASSRATGIPDRFSGSGSGTDFTLTISRLEPEDFAVYYCQQEGNVYTFGGGTKVEIK ?
0.299 µg/mL
